The reported numbers originate from paper PMC12040169.

assay: in vitro; parameters: Viability of infected HeLa host cells, resazurin conversion, bulk resorufin fluorescence relative to DMSO; conditions: human, hela cells; bulk resorufin, mean of 2
Value Type: viability at 28.5 h, 1 µM (%)
Value expressed in %; do not type the unit.

Recorded viability at 28.5 h, 1 µM, per entry:
So for CC1=NN(c2ccccc2)C(=O)/C1=C/Nc1ccc(S(=O)(=O)Nc2nc(C)cc(C)n2)cc1 [CBK262368] , the logged viability at 28.5 h, 1 µM turned out to be 96.6

Measured viability at 28.5 h, 1 µM of CCC(=O)N1CCCc2cc(C(O)CN3CCN(c4ccc(F)cc4)CC3)ccc21 (stereo not shown) [CBK286480] : 93

The compound listed as COc1c(Br)cc2c(cc(C)n2-c2ccccc2)c1OCC(O)CNC(C)C (stereo not shown) [CBK263516] shows viability at 28.5 h, 1 µM equal to 99.6

We next turn to a different compound, shown below.
Lab note: measured viability at 28.5 h, 1 µM of O=C(NCc1ccc([N+](=O)[O-])cc1)c1cccnc1NCc1ccc2c(c1)OCO2 [CBK153436] was 103

* * *

assay: in vitro; details: human, hela cells, % viability
Value Type: viability at 28.5 h, 10 µM

Lab book: viability at 28.5 h, 10 µM of O=C(c1n[nH]c2ccccc12)N1CCc2ccccc21 [CBK200282] noted as 90.6%

---
Note to self: viability at 28.5 h, 10 µM recorded for O=C(Nc1cccc(C=Cc2ccccn2)c1)c1c[nH]nc1-c1ccc(F)cc1 [CBK295335] was 78%

response.value for N#Cc1ccc(C(=O)Nc2nnc(C3=COCCO3)o2)cc1 [CBK287411] (field: viability at 28.5 h, 10 µM) = 83.3%

The molecule listed as CCc1nn2c(C3CCNCC3)ccnc2c1-c1cccs1 [CBK284226] has a reported viability at 28.5 h, 10 µM of 80.4%

// Cc1ccc(Cc2c(C)nc(N3CCN(Cc4ccccc4)CC3)[nH]c2=O)cc1 [CBK270170] : viability at 28.5 h, 10 µM value = 115%

* * *

# viability at 28.5 h, 10 µM listing for each entry below
experiment: in vitro; details: human, hela cells, % viability
The reply should be a number in %, with the unit left off.

Reference set (5 entries):
Query Cc1c(CN(C)C(=O)c2cccc(NC(=O)C3CCCO3)c2)cnn1C (stereo not shown) [CBK305416] yields viability at 28.5 h, 10 µM of 103

Record summary for FC(F)(F)c1ccc(Sc2cccc3ccccc23)nc1 [CBK089553] : reported viability at 28.5 h, 10 µM = 93.7

// viability at 28.5 h, 10 µM value for CC(C)(C)c1cc(CN)c(C(=O)O)o1 [CBK266510C] : 94.3

For record CCc1ccc(CN2CCC(Oc3ccccc3F)(C(=O)O)CC2)nc1 [CBK307528] the listed viability at 28.5 h, 10 µM is 93.1

// recorded viability at 28.5 h, 10 µM for Cc1ccc(CS(=O)(=O)N2CCC3(CC2)CNC(=O)C3)cc1 [CBK283344] : 88.5

Further cases:
Memo: Cc1nn(CCC(=O)NC(C)Cc2ccccn2)c(C)c1Cl (stereo not shown) [CBK281419] , reported viability at 28.5 h, 10 µM: 97.1

Kindly note the recorded viability at 28.5 h, 10 µM for CCn1c(SCc2cc(Cl)c3c(c2)OCCO3)nnc1-c1ccc(OC)cc1 [CBK297086] , which is 88.9

Quick note, viability at 28.5 h, 10 µM for CCCS(=O)(=O)n1c(=O)n(Cc2ccc(OC)cc2)c2ccccc21 [CBK106553] landed at 99.7

For reference, reported viability at 28.5 h, 10 µM for COc1ccc2occ(C(=O)c3ccc(N)cc3)c2c1 [CBK111303] stands at 81.8

The compound listed as COc1ccc(CN2CCN(C(=O)NS(=O)(=O)c3ccc(C)cc3)CC2)cc1F [CBK297156] has a reported viability at 28.5 h, 10 µM of 98.5

* * *

assay: in vitro; settings: human, hela cells, % viability
The following compounds are listed with their measured viability at 28.5 h, 10 µM values.
Kindly answer with a numeric value in %, unit omitted.

Check out these entries, answers already filled in.
// sample COc1ccccc1-c1nccnc1OCCn1cccc1 , its viability at 28.5 h, 10 µM was 91.3

// viability at 28.5 h, 10 µM value for CS(=O)(=O)N1CC=C[C@H]1C(=O)NCc1ccc(F)cc1 : 97.6

Just so you know, measured viability at 28.5 h, 10 µM for c1csc(N2CCCN(c3nccn4cnnc34)CC2)n1 came out at 82.4

// sample O=C1COc2ccccc2C/C=C/CC2(CCN(C(=O)CCn3ccnc3)CC2)CN1 , its viability at 28.5 h, 10 µM was 102

viability at 28.5 h, 10 µM in this record for O=C1c2ccccc2S(=O)(=O)N1c1ccc(F)cc1 : 112

***
So, CCN1CCN(CCNC(=O)Nc2ccccc2C)CC1 ? Its viability at 28.5 h, 10 µM was 108

Noted for O=C(CN1C(=O)c2ccccc2C1=O)Nn1cnnc1 : its viability at 28.5 h, 10 µM reads 99.6

* * *

test: in vitro; details: human, hela cells, % viability
Value Type: viability at 28.5 h, 10 µM (%)
Entry rule: numbers only, all in %.

See these solved cases before continuing.
compound CS(=O)(=O)N1CCN(Cc2cc(Br)ccc2O)CC1 [CBK263620G] , viability at 28.5 h, 10 µM observed: 93.9

Form: compound = CC12CN3CC(C)(CN(C1)C3c1cc(Br)ccc1O)C2O (centres unmarked) ; viability at 28.5 h, 10 µM = 112

Sure, the documented viability at 28.5 h, 10 µM for COc1ccc(-c2nn(CN3CCC(C(N)=O)CC3)c(=S)n2-c2ccccc2)cc1OC is 91.8

Measured viability at 28.5 h, 10 µM, COc1ccc2nc(Nc3nnc(-c4ccco4)o3)sc2c1 : 102

Measured viability at 28.5 h, 10 µM, Cc1cccnc1C(NC(=O)C1CCN(Cc2ccoc2)CC1)c1ccc(Cl)cc1 (centres unmarked) : 102

get_value(item= NC(=O)c1c(NC(=O)COc2ccc3ccccc3c2)sc2c1CCCCC2 , readout=viability at 28.5 h, 10 µM) returns 112

Item: CC(=O)Nc1cccc(-c2nc(-c3ccc(C#N)cc3)cnc2N)c1 | viability at 28.5 h, 10 µM: 100

Reported viability at 28.5 h, 10 µM for CCCn1ncc(C(=O)N2CCc3c([nH]c4ccccc34)C2C)c1C (centres unmarked) was 98.3

Data point: C[C@@H](Nc1nccnc1-c1cccnc1)c1ccccc1 ; viability at 28.5 h, 10 µM = 109

Per the records, this compound ( CNCC(=O)N1CCC2(CCCC[C@H]3CN(C(C)=O)CC[C@H]3NC(=O)CNC2=O)CC1 ) has viability at 28.5 h, 10 µM equal to 79.3

New cases:
get_value(item= O=C(O)c1cnc(Cl)c(Br)c1 , readout=viability at 28.5 h, 10 µM) returns 83.7

// sample O=C(c1ccsc1NS(=O)(=O)/C=C/c1ccccc1)N1CCOCC1 , its viability at 28.5 h, 10 µM was 90.8

The measured viability at 28.5 h, 10 µM associated with Cc1cc(COc2nc3ccccc3nc2NCCC2=CCCCC2)no1 reads 115

compound O=C(NCCc1c[nH]c2ccccc12)C(=O)Nc1ccncc1 , viability at 28.5 h, 10 µM observed: 101

* * *

# viability at 28.5 h, 10 µM per record follows
test: in vitro; conditions: human, hela cells, % viability
Supply the numeric figure in %, leaving out any unit text.

Observe how each entry below is paired with its result.
According to the records, this compound CC(C)C(=O)Nc1sc2c(c1C(=O)NCc1cccnc1)CCC2 displays viability at 28.5 h, 10 µM of 80.3

// viability at 28.5 h, 10 µM lookup, compound = CC(C)n1c(COc2ccc(OC(F)(F)F)cc2)n[nH]c1=S , result: 92.9

Next:
Record Cc1cc(C(=O)Nc2sc(C)c(C)c2C(=O)NCc2cccnc2)no1 . Reported viability at 28.5 h, 10 µM: 100

// viability at 28.5 h, 10 µM lookup, compound = CC(C)N1CCCC2(CCN(C(=O)Cc3c[nH]c(=O)n(C)c3=O)C2)C1=O (stereo not drawn) , result: 87.8

* * *

Below, each of the molecules is paired with its reported viability at 28.5 h, 10 µM value.
experiment: in vitro; settings: human, hela cells, % viability
Entry rule: numbers only, all in %.

Consider the following illustrative entries.
So for CC(C)C(=O)N1CCCC1c1cc2n(n1)[C@@H](C(F)(F)F)C[C@@H](C)N2 (stereo partly drawn) , the logged viability at 28.5 h, 10 µM turned out to be 106

For record O=C1N=C(NC2CCCCCC2)SC1CC(=O)N1CCOC12CCCCC2 (stereo not drawn) the listed viability at 28.5 h, 10 µM is 94

viability at 28.5 h, 10 µM for CN1CCC(C(=O)N2CCCc3ccccc32)CC1 is 95

Query O=c1[nH]c2ccccc2n1C1CCN(S(=O)(=O)c2cc(Cl)cc(Cl)c2O)CC1 yields viability at 28.5 h, 10 µM of 81.4

// Cc1ccc(NC(=O)COc2cccnc2)c(C)n1 : viability at 28.5 h, 10 µM value = 102

Further cases:
Record CCCc1nc(C(=O)NC2CC(=O)N(CCc3ccc(F)cc3)C2)cs1 (stereo not drawn) , field viability at 28.5 h, 10 µM: 105

According to the records, this molecule O=C1C(=CNCCN2CCOCC2)C(=O)c2ccccc21 displays viability at 28.5 h, 10 µM of 109

Record CC(C)(CO)CNc1cc(Cl)nc2ccnn12 , field viability at 28.5 h, 10 µM: 91

Measured viability at 28.5 h, 10 µM of CSc1cccc(CN2C[C@H]3CN(C(=O)C4CCC4)C[C@@]3(C(=O)O)C2)c1 : 88.4
